# protein stability index per entry
B1: BTBD1 (parent)
chain: IVGFGLYGSIHGPTDYQVNIQIIE

- Variants of: B1
- experiment-summary: protein stability index of a GFP-peptide fusion (GPS, HEK-293T) (PSI 1-6); higher = more stable;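 note: lentivirally expressed fusions sorted by FACS into six bins by GFP to DsRed ratio, PSI derived from sequencing read proportions per bin multiplied by bin number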
- measurement-conditions: c terminus: a fixed tail appended
Number only, please.

Here's what some known entries look like.
L6T = 2.16
Y16G = 4.04

Endpoint output: protein stability index of I23C . Value?
2.05

Consider the variant N19P and give its measured protein stability index.
3.38

Fill in: protein stability index of V18H is ___
1.58

Sample L6V — what was its protein stability index?
3.11

Which protein stability index is listed for Q21Y ?
3.06

Consider the variant shown here: Y7V What is its recorded protein stability index?
2.16

protein stability index for S9R ?
2.67

Find the recorded protein stability index belonging to Y16I and report it.
3.59

Recorded protein stability index for G12M , please?
2.27

Fill blank: measured protein stability index of the variant I10K is ____.
1.76

Entry I22G has what protein stability index?
1.91

Using the record for I10D , report its protein stability index.
2.74

Please look up its protein stability index: I10E
2.58
